Molecular target: T1, human IL4 (human, UniProt P05112 25-153, biotinylated in the SPR and competition assays (sites not given))
T1 sequence: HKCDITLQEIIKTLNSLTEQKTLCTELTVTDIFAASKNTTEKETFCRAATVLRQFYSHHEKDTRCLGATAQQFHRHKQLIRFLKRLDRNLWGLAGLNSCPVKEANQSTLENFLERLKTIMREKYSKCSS
Test: cell-based or functional assay
Quantity Kind: HEK Stat6 Inhibition IC50
Output should be the measured figure followed by the unit it is expressed in.

Binder	HEK Stat6 Inhibition IC50
C06_28E5 (designed binder, ankyrin repeat protein; His-tagged, IMAC-purified; also called benchmark AR protein) DLGKKLLEAARAGQDDEVRILMANGADVNAADDSGITPLHLAAEDGHLEIVEVLLKYGADVNAQDNLGDTPLHLAAWTGHLEIVEVLLKNGADVNAYDISGITPLHLAAFYGHLEIVEVLLKHGADVNAQDKFGKTAFDISIDNGNEDLAEILQKLN	1.4 pM
C06_17A11 (designed binder, ankyrin repeat protein; His-tagged, IMAC-purified) DLGKKLLEAARAGQDDEVRILMANGADVNAIDEWGDTPLHLAAIEGHLEIVEVLLKYGADVNASDAMGMTPLHLAAVYGYLEIVEVLLKNGADVNAMDFSGFTPLHLAAFSGHLEIVEVLLKYGADVNAQDKFGKTAFDISIDNGNEDLAEILQKLN	3 pM

Report HEK Stat6 Inhibition IC50, nothing else, for this binder: C06_50E5 (designed binder, ankyrin repeat protein; His-tagged, IMAC-purified) DLGKKLLEAARAGQDDEVRILMANGADANATDDWGDTLLHLAATDGHLEIVEVLLKNGADVNAIDAMGMTPLHLAAVYGYLEIVEVLLKNGADVNAMDFSGFTPLHLAAFSGHLEIVEVLLKYGADVNAQDKFGKTAFDISIDNGNEDLAEILQKLN
3.5 pM

Reference for the values: patent US20120277143A1
